systemUnderTest: Drosophila OR71a (Drosophila melanogaster, UniProt Q9VUK5)
Construct: expressed in transfected cells
Sequence (Q9VUK5 whole entry): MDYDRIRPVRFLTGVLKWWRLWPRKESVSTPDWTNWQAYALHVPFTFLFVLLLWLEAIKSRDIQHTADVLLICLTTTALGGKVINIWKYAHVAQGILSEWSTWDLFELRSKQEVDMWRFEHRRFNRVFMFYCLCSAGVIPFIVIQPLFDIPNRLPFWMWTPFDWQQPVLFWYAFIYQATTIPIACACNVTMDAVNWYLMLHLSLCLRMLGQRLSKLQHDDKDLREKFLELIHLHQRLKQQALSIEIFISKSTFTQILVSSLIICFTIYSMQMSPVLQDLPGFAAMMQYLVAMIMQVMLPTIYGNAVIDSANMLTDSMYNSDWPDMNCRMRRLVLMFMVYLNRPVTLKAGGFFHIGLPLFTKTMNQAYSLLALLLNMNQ
Sequence (Q9VNB5 whole entry partner): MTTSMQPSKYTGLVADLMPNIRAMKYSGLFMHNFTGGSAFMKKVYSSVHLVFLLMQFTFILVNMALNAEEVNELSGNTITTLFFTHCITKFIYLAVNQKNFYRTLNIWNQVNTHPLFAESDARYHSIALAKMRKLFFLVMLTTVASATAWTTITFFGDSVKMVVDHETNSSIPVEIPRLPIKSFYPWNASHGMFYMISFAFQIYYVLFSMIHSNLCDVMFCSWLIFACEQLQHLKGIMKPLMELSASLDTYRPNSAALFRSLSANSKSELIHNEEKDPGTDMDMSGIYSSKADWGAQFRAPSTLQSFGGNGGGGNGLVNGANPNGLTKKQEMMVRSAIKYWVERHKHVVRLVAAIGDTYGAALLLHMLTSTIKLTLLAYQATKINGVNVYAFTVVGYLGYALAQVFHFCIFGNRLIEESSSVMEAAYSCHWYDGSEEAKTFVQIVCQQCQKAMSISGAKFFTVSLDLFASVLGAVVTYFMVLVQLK
assayName: Calcium ion fluorescence (GCaMP6) assay, OR71a stable HEK293 cell line
Format: cell-based
measurementContext: HEK293, read-out: OR71a response (VUAA1-normalized response)
Reported values of activation at 100 µM for individual entries
Dear colleague, please return just the value in %, with no unit written.

Consider the following illustrative entries.
{"columns": ["compound", "activation at 100 µM [%]"],
 "data": [
  ["COc1cccc(OC)c1", 0],
  ["CCCCCC(O)CC (stereo not drawn)", 0],
  ["CCCCC(C)=O", 0],
  ["CCOC(=O)c1ccccc1 [ethyl benzoate]", 11],
  ["Cc1ccc(C)c(C)c1", 0]
]}

Moving on to another compound below.
Query: Requested field: activation at 100 µM. Item: CCCCCCCCC(CO)CCCCCC (stereo not drawn)
Result: 0
